Each record here notes measured % inhibition of HUI77 binding to dn-collagen IV, peptide 100 µM.
molecular target: HUI77, murine IgM anti-denatured-collagen monoclonal antibody; assay: competition ELISA on coated dn-collagen IV
Square brackets hold non-standard residues; d marks the D form. Ends that are not written are not given here. Hyp = O=C(O)[C@@H]1C[C@@H](O)CN1
test-readout: % inhibition of HUI77 binding to dn-collagen IV, peptide 100 µM (%)

binder	measured-result
GPPG (also: hydroxyproline marking, if any, lost) [synthetic peptide No. 22, GPPG (SEQ ID NO: 35)]	8
GPPGPPG (also: hydroxyproline at marked P positions, if any, marking lost) [synthetic peptide No. 23, GPPGPPG (SEQ ID NO: 33)]	2
LPGP[Hyp]GP[Hyp]GP [synthetic peptide No. 5, … (SEQ ID NO: 20)]	14
L[Hyp]GS[Hyp]G [synthetic peptide No. 10, LPGSPG (SEQ ID NO: 26)]	10.5
CTWPRHHTTDALL [non-collagen control peptide No. 6, … (SEQ ID NO: 39)]	6.5
GPXGPXGP (hydroxyproline at the P positions marked in Tables 13 and 14; marking lost in this text) [synthetic peptide No. 17, GPPGPPGP (SEQ ID NO: 31)]	12
